Values were extracted from ChEMBL document CHEMBL1240354.

test name: Cmax in CD1 mouse infected with wild type Aspergillus fumigatus at 1 mg/kg, po qd for 14 days measured after 24 hrs post last dose by HPLC analysis
Type: ADME, organism-based
Parameters: dose 1 mg/kg, route oral
details: in vivo
quantity kind: Cmax (ng/mL)
Kindly answer with a numeric value in ng/mL, unit omitted.

Q) Item under review: `CC[C@@H]([C@H](C)O)n1ncn(-c2ccc(N3CCN(c4ccc(OC[C@@H]5CO[C@@](Cn6cncn6)(c6ccc(F)cc6F)C5)cc4)CC3)cc2)c1=O` . Reported Cmax?
A) 980

###

test name: Cmax in CD1 mouse infected with wild type Aspergillus fumigatus at 64 mg/kg, po qd for 14 days measured after 24 hrs post last dose by HPLC analysis
Assay type: ADME, organism-based
Set-up: dose 64 mg/kg, route oral
details: in vivo
quantity kind: Cmax (ng/mL)
Kindly answer with a numeric value in ng/mL, unit omitted.

Q) Item under review: `CC[C@@H]([C@H](C)O)n1ncn(-c2ccc(N3CCN(c4ccc(OC[C@@H]5CO[C@@](Cn6cncn6)(c6ccc(F)cc6F)C5)cc4)CC3)cc2)c1=O` . Reported Cmax?
A) 17800
